# measuredOn: hGLP-1R (Homo sapiens, UniProt P43220)
# Sequence (P43220 24-463): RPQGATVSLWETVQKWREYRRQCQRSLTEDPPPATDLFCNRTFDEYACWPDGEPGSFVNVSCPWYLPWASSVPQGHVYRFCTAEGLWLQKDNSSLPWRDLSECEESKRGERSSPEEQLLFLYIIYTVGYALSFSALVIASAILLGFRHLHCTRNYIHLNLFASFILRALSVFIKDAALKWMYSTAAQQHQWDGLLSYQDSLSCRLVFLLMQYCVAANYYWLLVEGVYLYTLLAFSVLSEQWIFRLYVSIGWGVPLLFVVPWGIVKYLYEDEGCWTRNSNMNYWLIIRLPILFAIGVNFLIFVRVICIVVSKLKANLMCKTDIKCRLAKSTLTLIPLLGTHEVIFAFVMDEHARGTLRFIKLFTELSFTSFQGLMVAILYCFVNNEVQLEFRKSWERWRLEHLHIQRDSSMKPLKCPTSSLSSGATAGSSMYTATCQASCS
# measurementNotes: cell-based or functional assay
assayMetric: cAMP Rel EC50, nM (in the presence of 1% HSA)
// unit must come after the numeric part

Report cAMP Rel EC50, nM (in the presence of 1% HSA) for YXQGTFTSDFSXXLDKKAQXAFIEYLLEGGPSSGAPPPGES (synthetic construct; SITE 2: note = 2-Aminoisobutyric Acid; SITE 12: note = L-ornithine; SITE 13: note = alpha-methyl-leucine; SITE 17: note = Lysine is chemically modified through conjugation of the epsilon-amino group of the Lysine side chain with (2-[2-(2-Amino-ethoxy)-ethoxy]-acetyl)2-(gamma-Glu)) [Example 118] please.
1450 nM

Which cAMP Rel EC50, nM (in the presence of 1% HSA) is listed for YXQGTFTSDFSRXLDKKAQXAFIEYLLAGGPSSGAPPPSGS (synthetic construct; SITE 2: note = 2-Aminoisobutyric Acid; SITE 13: note = alpha-methyl-leucine; SITE 17: note = Lysine is chemically modified through conjugation of the epsilon-amino group of the Lysine side chain with (2-[2-(2-Amino-ethoxy)-ethoxy]-acetyl)-(gamma-Glu)-CO-(CH2) 18-CO2H; SITE 20: n) [Example 77] ?
339 nM

Which measured cAMP Rel EC50, nM (in the presence of 1% HSA) value corresponds to YXQGTFTSDFSKXLDKKAQXAFIEYLLEGGPSSGAPPPSEG (synthetic construct; SITE 2: note = 2-Aminoisobutyric Acid; SITE 13: note = alpha-methyl-leucine; SITE 17: note = Lysine is chemically modified through conjugation of the epsilon-amino group of the Lysine side chain with (gamma-Glu)2-CO-(CH2)16-CO2H; SITE 20: note = 2-Aminoisobutyric Acid; SITE 41:) [Example 58] ?
20.7 nM
